# Test system: M14 melanoma
# assay method text: NCI-60 one-dose screen, 48 h (100 = growth as untreated, 0 = no growth, -100 = all killed)
# cond: 10 µM unless noted
About 83,000 compounds went through this panel and 20% of them were active in at least one assay; those are over-represented in the sample as a whole.
Listed compounds paired with reported growth

{"compound": "CC[C@H](C)[C@H](NC(=O)N[C@@H](C)c1ccccc1)C(=O)N(C)[C@H](C[C@@H](OC(C)=O)c1nc(C(=O)N[C@@H](Cc2ccccc2)C[C@H](C)C(=O)OC)cs1)C(C)C", "unit name": "%", "growth": -12.2}
{"compound": "CCOC(=O)c1c(C)n(Cc2ccccc2)c2cc(CN(C)C)c(O)cc12", "unit name": "%", "growth": 81.3}
{"compound": "CC(C)COC(C[N+](=O)[O-])C(Cl)(Cl)Cl (centres undefined)", "unit name": "%", "growth": 105}
{"compound": "O=C1NC(=O)C(=Cc2cn(CCCCCCn3c4ccccc4c(=O)c4ccccc43)c3ccccc23)C(=O)N1", "unit name": "%", "growth": 94.1}
{"compound": "COc1ccc2nc(NC(=O)COc3cc(/C=C\\c4cc(OC)c(OC)c(OC)c4)ccc3OC)sc2c1", "unit name": "%", "growth": 22.9}
{"compound": "Cn1cc(C=O)c2nccnc21", "unit name": "%", "growth": 120}
{"compound": "COc1ccc(C2=N[C@@H](Cc3ccccc3)C(=O)Nc3ccsc32)cc1", "unit name": "%", "growth": 20.7}
{"compound": "COc1cc2c(cc1OCCCCCn1c(-c3ccco3)nc3ccccc31)N=C[C@@H]1CCCN1C2=O", "unit name": "%", "growth": -23}
{"compound": "CC1(C)N=C(N)N=C(N)N1c1ccc(CCC(=O)Nc2ccc(S(=O)(=O)F)cc2)c(Cl)c1", "unit name": "%", "growth": 23.4}

###

# System: U251 CNS
# assay method text: NCI-60 one-dose screen, 48 h (100 = growth as untreated, 0 = no growth, -100 = all killed)
# cond: 10 µM unless noted
This is part of a sample that, as a whole, favours compounds with a hit. Of some 83,000 tested, about 20% had one in any assay.
Listed compounds paired with reported growth
observed property: growth (%)

{"compound": "CCCCCCCOC(C(=O)OCCN(CC)CC)(c1ccccc1)c1ccccc1", "unit name": "%", "endpoint value": 77.8}
{"compound": "O=C(Nc1ccc([As]=[As]c2ccc(NC(=O)c3ccccc3)cc2)cc1)c1ccccc1 (stereo not drawn)", "unit name": "%", "endpoint value": -78.6}
{"compound": "Clc1ccc(CO/N=C(\\Cn2ccnc2)c2ccc(Cl)cc2Cl)c(Cl)c1", "unit name": "%", "endpoint value": -21.2}
{"compound": "COC(=O)C1CCC(NC(=O)c2csc([C@@H](C[C@H](C(C)C)N(C)C(=O)[C@@H](NC(=O)[C@H]3CCCCN3C)C(C)C)OC(C)=O)n2)CC1 (stereo partly drawn)", "unit name": "%", "endpoint value": 2.97}
{"compound": "COc1ccc(-n2c(C)nc3cc(OC)c(OC)cc3c2=O)cc1OC", "unit name": "%", "endpoint value": 94.4}
{"compound": "COC(=O)[C@@]1(O)C[C@H]2O[C@]1(C)n1c3ccccc3c3c4c(c5c6ccccc6n2c5c31)C(=O)NC4", "unit name": "%", "endpoint value": -67.1}
{"compound": "CCCCCCCC[n+]1ccc2ccccc2c1", "unit name": "%", "endpoint value": 66}
{"compound": "Cc1ccc(S(=O)(=O)C(Cl)(Cl)Cl)cc1", "unit name": "%", "endpoint value": 88.7}
{"compound": "CC(=O)O[C@@H]1CC[C@]2(C)[C@H]3CC[C@]4(C)C(=O)CC[C@H]4[C@@H]3C[C@@H]3SC(N)=N[C@@]32C1", "unit name": "%", "endpoint value": 37}
{"compound": "Nc1ccc(-c2nc3cc(F)ccc3[se]2)cc1F", "unit name": "%", "endpoint value": 87.2}
{"compound": "CCOC(=O)CCC(NC(=O)C(Cc1ccc(N(CCCl)CCCl)cc1)NC=O)C(=O)OCC (stereo not drawn)", "unit name": "%", "endpoint value": 48.4}
{"compound": "CC(C)CCC(=O)O[C@H]1CC[C@H]2[C@@H]3CCC4=CC(=O)CC[C@]4(C)[C@H]3CC[C@]12C", "unit name": "%", "endpoint value": 99.2}
{"compound": "O=P(Oc1ccc(Cl)cc1)(N1CC1)N1CC1", "unit name": "%", "endpoint value": 82.6}
{"compound": "COc1cc([C@@H]2c3cc4c(cc3[C@H](OC(C)=O)[C@H]3COC(=O)[C@H]23)OCO4)cc(OC)c1OC", "unit name": "%", "endpoint value": 18.9}
{"compound": "O=C(CC1(O)C(=O)N(Cc2ccccc2)c2ccccc21)c1ccc(C(=O)NCC2CCC3(CC2)OOC2(CCCCC2)OO3)cc1 (stereo not drawn)", "unit name": "%", "endpoint value": -77.2}
{"compound": "CC[C@H](C)[C@H](NC(=O)C12C3C4C1C1C2C3C41NC)C(=O)N(C)[C@H](C[C@@H](OC(C)=O)c1nc(C(=O)N[C@@H](Cc2ccccc2)C[C@H](C)C(=O)OC)cs1)C(C)C (stereo partly drawn)", "unit name": "%", "endpoint value": 11.6}
{"compound": "Cc1c2cc(Cl)c3ccccc3c2c[n+]2ccccc12", "unit name": "%", "endpoint value": 0.443}
{"compound": "NC(=O)CNc1ccc([As]=[As]c2ccc(NCC(N)=O)cc2)cc1 (stereo not drawn)", "unit name": "%", "endpoint value": 12}
{"compound": "CC(=O)OCC1O[C@@H]([S-])C(OC(C)=O)[C@H](OC(C)=O)[C@@H]1OC(C)=O.[Au+].c1ccc(CN2[CH-]N(Cc3ccccc3)C(c3ccccc3)=C2c2ccccc2)cc1", "unit name": "%", "endpoint value": -59.3}
{"compound": "C/C=C(\\C)C(=O)O[C@@H]1C(O)[C@H]2OC(COC(=O)CCC(=O)CCCCCC[C@H](CCCCC)O[C@@H]3OC(C)[C@H](OC(C)=O)C(O)[C@H]3O2)[C@H]1OC(=O)/C=C/c1ccccc1 (stereo partly drawn)", "unit name": "%", "endpoint value": 8.26}
{"compound": "[Cl][Hg][n]1c(-c2ccco2)nc2ccccc21", "unit name": "%", "endpoint value": 91.5}
{"compound": "COC(=O)[C@@H](C)C[C@H](Cc1ccccc1)NC(=O)c1csc([C@@H](C[C@H](C(C)C)N(C)C(=O)[C@H](C)NC(=O)[C@H]2CCCN2C)OC(C)=O)n1", "unit name": "%", "endpoint value": 24.8}
{"compound": "c1ccc(COc2ccc3[nH]cc(CCN(Cc4ccccc4)Cc4ccccc4)c3c2)cc1", "unit name": "%", "endpoint value": 81.6}
{"compound": "CN1C(=O)C(=Cc2cn(Cc3ccccc3)c3ccccc23)C(=O)N(C)C1=O", "unit name": "%", "endpoint value": 82.8}
{"compound": "O=C(Nc1ccc(Cl)cc1)Nc1nccs1", "unit name": "%", "endpoint value": 22.3}
{"compound": "CC[C@H](C)[C@H](NC(=O)C12C3C4C1C1C2C3C41NC(C)=O)C(=O)N(C)[C@H](C[C@@H](OC(C)=O)c1nc(C(=O)N[C@@H](Cc2ccccc2)C[C@H](C)C(=O)OC)cs1)C(C)C (stereo partly drawn)", "unit name": "%", "endpoint value": 9.8}
{"compound": "CCN(CC)CCOC(=O)C(OC(C)C)(c1ccccc1)c1ccccc1", "unit name": "%", "endpoint value": 101}
{"compound": "C[C@@H]1O[C@@H](O[C@H]2C[C@@H](O)[C@]3(CO)C4C(CC[C@]3(O)C2)[C@@]2(O)CC[C@H](C3=CC(=O)OC3)[C@@]2(C)C[C@H]4O)[C@H](O)[C@H](O)[C@H]1O (stereo partly drawn)", "unit name": "%", "endpoint value": -97.3}
{"compound": "Nc1c(F)cc(-c2nc3cc(F)ccc3[se]2)cc1F", "unit name": "%", "endpoint value": 93.6}
{"compound": "CC[S][Hg][Cl]", "unit name": "%", "endpoint value": 99.6}
{"compound": "O=C(O)c1ccc([S-])cc1.[Au+].c1ccc(CN2[CH-]N(Cc3ccccc3)C(c3ccccc3)=C2c2ccccc2)cc1", "unit name": "%", "endpoint value": -82.5}
{"compound": "CC(=O)O[C@H](C[C@H](C(C)C)N(C)C(=O)[C@@H](NC(=O)[C@H]1CCCCN1C)C(C)C)c1nc(C(=O)N[C@@H](Cc2ccccc2)C[C@H](C)C(=O)O)c(C(C)C)s1", "unit name": "%", "endpoint value": 15.4}
{"compound": "C/C(=C\\c1ccn(-c2ccc(N)cc2C(F)(F)F)n1)[C@@H]1C[C@@H]2O[C@]2(C)CCC[C@H](C)[C@H](O)[C@@H](C)C(=O)C(C)(C)[C@@H](O)CC(=O)O1", "unit name": "%", "endpoint value": 13.3}
